- TARGET SYSTEM: T1, human GITR, membrane bound (on activated human T cells and on 3A9-hGITR cells) (human, UniProt Q9Y5U5 26-241)
- T1 construct: whole, on cells; the cell is named under assay; also called huGITR; TNFRSF18
- T1 sequence (looked up): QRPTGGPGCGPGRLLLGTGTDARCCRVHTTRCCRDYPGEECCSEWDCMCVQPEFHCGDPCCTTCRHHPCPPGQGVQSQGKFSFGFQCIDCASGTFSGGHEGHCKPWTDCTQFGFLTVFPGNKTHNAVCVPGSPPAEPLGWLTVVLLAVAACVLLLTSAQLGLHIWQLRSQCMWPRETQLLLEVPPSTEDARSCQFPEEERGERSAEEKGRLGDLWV
- TEST DETAILS: FACS binding to 3A9-hGITR transfectant, Geo-MFI (PE); EC50 table beside the curves; unit from the axis
ENDPOINT LABEL: EC50 (nM)
Field: numeric (nM). Do not append units.

Could you tell me which EC50 is on file for 28F3 VH CDR3 mutant M98L, D106E, M111L (antibody, V domains shown, also called C3) VH: QVQLVESGGGVVQPGRSLRLSCAASGFTFSSYGMHWVRQAPGKGLEWVAVIWYEGSNKYYADSVKGRFTISRDNSKNTLYLQMNSLRAEDTAVYYCARGGSLVRGEYYYGLDVWGQGTTVTVSS VL: AIQLTQSPSSLSASVGDRVTITCRASQGISSALAWYQQKPGKAPKLLIYDASSLESGVPSRFSGSGSGTDFTLTISSLQPEDFATYYCQQFNSYPYTFGQGTKLEIK ?
1.22

Let's switch to this binder now.
Would you kindly share the measured EC50 for 28F3 VH CDR3 mutant M98S, M111F (antibody, V domains shown, also called F2) VH: QVQLVESGGGVVQPGRSLRLSCAASGFTFSSYGMHWVRQAPGKGLEWVAVIWYEGSNKYYADSVKGRFTISRDNSKNTLYLQMNSLRAEDTAVYYCARGGSSVRGDYYYGFDVWGQGTTVTVSS VL: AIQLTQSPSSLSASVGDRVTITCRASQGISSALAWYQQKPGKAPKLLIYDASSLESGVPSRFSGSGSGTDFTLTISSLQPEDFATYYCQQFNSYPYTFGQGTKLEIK ?
246
